assay: log P by HPLC on a reversed-phase column (C 18), EEC Directive 79/831 Annex V.A8; assay type: physicochemical; settings: reversed-phase HPLC column (C 18); Table 5 (formula V); HPLC C 18, 40° C., 0.1% aqueous formic acid and acetonitrile
RECORDED ENDPOINT: chromatographic logP
Lab note: jot down the number only; don't add units.

For the compound shown here, CC1(c2c(Cl)cccc2CBr)CC1 [V.01] , give the reported chromatographic logP.
4.86

* * *

experiment: log P by HPLC on a reversed-phase column (C 18), EEC Directive 79/831 Annex V.A8; type: physicochemical; settings: reversed-phase HPLC column (C 18); preparation examples
Entries annotated with measured chromatographic logP
Lab note: jot down the number only; don't add units.

Below, 3 compounds whose answers are already recorded.
CC1(c2ccc(Cl)cc2Br)CC1
4.93
C=C(C)c1ccc(Cl)cc1Br
4.91
Fc1ccc(C2(C(F)F)CC2)c(CNC2CC2)c1 [II.39]
1.08

Please look at the following compound next.
For the compound shown here, Cn1nc(C(F)F)c(C(=O)N(Cc2cc(F)ccc2C2(C(F)F)CC2)C2CC2)c1F [I.151] , give the reported chromatographic logP.
3.39

* * *

Assay: log P by HPLC on a reversed-phase column (C 18), EEC Directive 79/831 Annex V.A8
Type: physicochemical
Details: HPLC, reversed-phase column (C 18), 40° C., 0.1% aqueous formic acid and acetonitrile, linear gradient 10% to 90% acetonitrile
Method: In table 1, the log P values were determined in accordance with EEC Directive 79/831 Annex V.A8 by HPLC (High Performance Liquid Chromatography) on a reversed-phase column (C 18), using the method described below: Temperature: 40° C.; Mobile phases: 0.1% aqueous formic acid and acetonitrile; linear gradient from 10% acetonitrile to 90% acetonitrile. […]
RECORDED ENDPOINT: logP

Below, 3 compounds whose answers are already recorded.
Cn1nc(C(F)F)c(C(=O)N(Cc2ccc(C3CCOCC3)cc2C2(C)CC2)C2CC2)c1F [I.047]
3.87
CCC1(c2ccccc2CN(C(=S)c2c(C(F)F)nn(C)c2Cl)C2CC2)CC1 [I.099]
5.00
Cn1nc(C(F)F)c(C(=O)N(Cc2cccc(-c3ccccc3)c2C2(C)CC2)C2CC2)c1F [I.012]
4.73

For the compound shown here, Cn1nc(C(F)F)c(C(=O)N(Cc2cccc(C3=CC4CCC3C4)c2C2(C)CC2)C2CC2)c1F (centres unmarked) [I.013] , give the reported logP.
5.78

Similarly, Cn1nc(C(F)F)c(C(=O)N(Cc2cc(Cl)ccc2C2(C(F)F)CC2)C2CC2)c1F [I.149] ?
3.70

Similarly, COc1cc(CN(C(=O)c2c(C(F)F)nn(C)c2Cl)C2CC2)c(C2(C)CC2)cc1OC [I.054] ?
3.46

Similarly, Cn1nc(C(F)F)c(C(=O)N(Cc2cc(Cl)ccc2C2(C(F)F)CC2)C2CC2)c1Cl [I.148] ?
3.85

Similarly, Cc1ccc(C2(C(C)C)CC2)c(CN(C(=O)c2c(C(F)F)nn(C)c2Cl)C2CC2)c1 [I.136] ?
5.11

* * *

test: log P by HPLC on a reversed-phase column (C 18), EEC Directive 79/831 Annex V.A8; assay type: physicochemical; conditions: reversed-phase HPLC column (C 18); Table 3 (amines of formula II); HPLC C 18, 40° C., 0.1% aqueous formic acid and acetonitrile
RECORDED ENDPOINT: chromatographic logP
Lab note: jot down the number only; don't add units.

Below, 5 compounds whose answers are already recorded.
C#CC1(c2ccc(Cl)cc2CNC2CC2)CC1 [II.16]
1.22
Cc1ccc(C2(CC(C)C)CC2)c(CNC2CC2)c1 [II.43]
2.15
CCC1(c2cccc(F)c2CNC2CC2)CC1 [II.31]
1.14
CC1(c2ccc(Cl)cc2CNC2CC2)CC1 [II.10]
1.7
COCC1(c2ccc(C)cc2CNC2CC2)CC1 [II.22]
1.49

For the compound shown here, CCC1(c2cc(C(F)(F)F)ccc2CNC2CC2)CC1 [II.24] , give the reported chromatographic logP.
1.95

Similarly, Cc1ccc(C2(C)CC2)c(CNC2(C)CC2)c1 [II.13] ?
1.45

Similarly, Cc1ccc(CNC2CC2)c(C2(C)CC2)c1 [II.05] ?
1.43

Similarly, Cc1ccc(C2(C#N)CC2)c(CNC2CC2)c1 [II.21] ?
1.19

Similarly, CC1(c2cc(Cl)ccc2CNC2CC2)CC1 [II.04] ?
1.54

* * *

assay: log P by HPLC on a reversed-phase column (C 18), EEC Directive 79/831 Annex V.A8; assay type: physicochemical; settings: HPLC, reversed-phase column (C 18), 40° C., 0.1% aqueous formic acid and acetonitrile, linear gradient 10% to 90% acetonitrile
Entries annotated with measured logP
Lab note: jot down the number only; don't add units.

Cn1nc(C(F)F)c(C(=O)N(Cc2ccc(F)cc2C2(C(F)F)CC2)C2CC2)c1F
3.41
CCOC1(c2ccc(C)cc2CN(C(=O)c2c(C(F)F)nn(C)c2F)C2CC2)CC1
4.06
Cn1nc(C(F)F)c(C(=O)N(Cc2cc(C(F)(F)F)ccc2C2(C)CC2)C2CC2)c1F
4.34

For the compound shown here, Cn1nc(C(F)F)c(C(=O)N(Cc2ccc(-c3ccncc3)cc2C2(C)CC2)C2CC2)c1F , give the reported logP.
2.00

* * *

assay: log P by HPLC on a reversed-phase column (C 18), EEC Directive 79/831 Annex V.A8; assay type: physicochemical; conditions: HPLC, reversed-phase column (C 18), 40° C., 0.1% aqueous formic acid and acetonitrile, linear gradient 10% to 90% acetonitrile
Hi! Just check whether logP is below 4. Below gives Fulfilled, equal or above gives Not fulfilled.

# example entries with known answers
Cn1nc(C(F)F)c(C(=O)N(Cc2cc(-c3cn(C)c4ccccc34)ccc2C2(C)CC2)C2CC2)c1F [I.082]
Not fulfilled
Cn1nc(C(F)F)c(C(=O)N(Cc2ccc(-c3ccc4ncccc4c3)cc2C2(C)CC2)C2CC2)c1F [I.046]
Fulfilled
CCC1(c2cccc(F)c2CN(C(=O)c2c(C(F)F)nn(C)c2Cl)C2CC2)CC1 [I.115]
Not fulfilled
Cn1nc(C(F)F)c(C(=S)N(Cc2ccc(F)cc2C2(C)CC2)C2CC2)c1F [I.023]
Not fulfilled
Cn1nc(C(F)F)c(C(=O)N(Cc2cc(Cl)ccc2C2(C#N)CC2)C2CC2)c1F [I.094]
Fulfilled

Field: below-cutoff. Rule: recorded logP strictly less than 4. Subject: Cc1ccc(C2(C)CC2)c(CN(C(=O)c2c(C(F)F)nn(C)c2F)C2CC2)c1F [I.087]
Not fulfilled

Similarly, COC1(c2ccc(Cl)cc2CN(C(=O)c2c(C(F)F)nn(C)c2Cl)C2CC2)CC1 [I.119] ?
Fulfilled

Similarly, Cc1cc(CN(C(=O)c2c(C(F)F)nn(C)c2F)C2CC2)c(C2(C)CC2)cc1C [I.051] ?
Not fulfilled

* * *

assay: log P by HPLC on a reversed-phase column (C 18), EEC Directive 79/831 Annex V.A8; assay type: physicochemical; settings: HPLC, reversed-phase column (C 18), 40° C., 0.1% aqueous formic acid and acetonitrile, linear gradient 10% to 90% acetonitrile
Label rule, in plain words: logP of 4 and up is Criterion met, under 4 is Criterion not met.

# example entries with known answers
Cc1ccc(CN(C(=O)c2c(C(F)F)nn(C)c2F)C2CC2)c(C2(C)CC2)c1
Criterion met
COc1cc(CN(C(=O)c2c(C(F)F)nn(C)c2F)C2CC2)c(C2(C)CC2)cc1OC
Criterion not met
COC1(c2ccc(C3=CCOCC3)cc2CN(C(=O)c2c(C(F)F)nn(C)c2F)C2CC2)CC1
Criterion not met

Dear colleague, could you confirm whether Cn1nc(C(F)F)c(C(=S)N(Cc2ccccc2C2(C)CC2)C2CC2)c1F has logP at or above 4?
Criterion met

Similarly, Cn1nc(C(F)F)c(C(=O)N(Cc2ccc(-c3ccsc3)cc2C2(C)CC2)C2CC2)c1F ?
Criterion met

* * *

Entries annotated with measured chromatographic logP
assay: log P by HPLC on a reversed-phase column (C 18), EEC Directive 79/831 Annex V.A8; type: physicochemical; details: reversed-phase HPLC column (C 18); Table 4 (aldehydes of formula IV); HPLC C 18, 40° C., 0.1% aqueous formic acid and acetonitrile
Lab note: jot down the number only; don't add units.

Below, 6 compounds whose answers are already recorded.
N#CC1(c2ccc(Cl)cc2C=O)CC1
2.35
CCC1(c2ccc(C)cc2C=O)CC1
4.29
COc1ccc(C=O)c(C2(C)CC2)c1
2.92
O=Cc1cc(Cl)ccc1C1(C(=O)O)CC1
1.91
Cc1cc(C=O)c(C2(C)CC2)cc1C
3.85
CC1(c2ccccc2C=O)CC1
3.02

For the compound shown here, CC1(c2cc(F)ccc2C=O)CC1 , give the reported chromatographic logP.
3.15

Similarly, Cc1ccc(C2(C)CC2)c(C=O)c1 ?
3.55

Similarly, CC1(c2ccc(F)cc2C=O)CC1 ?
3.22

Similarly, O=Cc1cc(Cl)ccc1C1(C(F)F)CC1 ?
3.04

Similarly, CC1(c2cc(F)c(F)cc2C=O)CC1 ?
3.44

Similarly, CC1(c2ccc(Cl)cc2C=O)CC1 ?
3.76

Similarly, CCC1(c2cc(C(F)(F)F)ccc2C=O)CC1 ?
4.29
